Origin of the recorded values: patent US20240132624A1

In this section we review reported koff values for a set of binders.
Target: T1, cyno FcRn/b2M (cyno, UniProt Q8SPV9 24-297; Q8SPW0 21-119, biotinylated)
T1 construct: bought recombinant biotinylated protein (Immunitrack ITF05 or ACRO FCM-C82W5); also called cFcRn; cFcRn/cb2M
T1 sequence (Q8SPV9 24-297 limits assumed, chain 1 of 2): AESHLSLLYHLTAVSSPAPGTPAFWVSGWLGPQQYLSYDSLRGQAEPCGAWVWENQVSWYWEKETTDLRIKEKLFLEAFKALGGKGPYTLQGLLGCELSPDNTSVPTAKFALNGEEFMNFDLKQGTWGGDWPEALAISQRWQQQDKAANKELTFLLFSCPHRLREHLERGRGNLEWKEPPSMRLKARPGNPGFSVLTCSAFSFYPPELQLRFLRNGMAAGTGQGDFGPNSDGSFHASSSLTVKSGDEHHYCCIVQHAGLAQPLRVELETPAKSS
T1 sequence (Q8SPW0 21-119 limits assumed, chain 2 of 2): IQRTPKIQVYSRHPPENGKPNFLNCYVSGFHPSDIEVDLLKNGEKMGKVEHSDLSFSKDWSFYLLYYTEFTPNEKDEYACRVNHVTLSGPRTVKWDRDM
Experiment Description: SPR pH 6.0;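 note: surface plasmon resonance kinetics at 25 °C, diluted periplasmic extracts injected over immobilized ligand surfaces, 120 s association then 600–3600 s dissociation, running buffer containing 150 mM NaCl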

Answered cases to consult:
| Binder | Value Measured |
| --- | --- |
| T0263018B11 S52V (VHH, name in Kabat numbering, FLAG3-His6 tagged) VHH: EVQLVESGGGVVQPGGSLRLSCAASGFTFSSYAMYWVRQAPGKGLEWVSAIVSGGGSTDYADSVKGRFTISRDNSKNTLYLQMNSLRPEDTALYYCAADTLYTSLTWYSYWGQGTLVTVSS | 0.0025 s⁻¹ |
| T0263018B11 T100bE (VHH, name in Kabat numbering, FLAG3-His6 tagged) VHH: EVQLVESGGGVVQPGGSLRLSCAASGFTFSSYAMYWVRQAPGKGLEWVSAISSGGGSTDYADSVKGRFTISRDNSKNTLYLQMNSLRPEDTALYYCAADTLYTSLEWYSYWGQGTLVTVSS | 0.00049 s⁻¹ |
| T0263018B11 G54P (VHH, name in Kabat numbering, FLAG3-His6 tagged) VHH: EVQLVESGGGVVQPGGSLRLSCAASGFTFSSYAMYWVRQAPGKGLEWVSAISSGPGSTDYADSVKGRFTISRDNSKNTLYLQMNSLRPEDTALYYCAADTLYTSLTWYSYWGQGTLVTVSS | 0.0017 s⁻¹ |

// query Fill in the blank: the reported koff of T0263018B11 S56Q (VHH, name in Kabat numbering, FLAG3-His6 tagged) VHH: EVQLVESGGGVVQPGGSLRLSCAASGFTFSSYAMYWVRQAPGKGLEWVSAISSGGGQTDYADSVKGRFTISRDNSKNTLYLQMNSLRPEDTALYYCAADTLYTSLTWYSYWGQGTLVTVSS is ____.
// result 0.0018 s⁻¹
